# System: Escherichia coli
# TEST: Bactericidal activity against Escherichia coli NIHJ JC-2 preincubated for 5 mins before addition of growth medium measured after 40 to 48 hrs
# Format: functional
With a cut-off of 6 µg/mL, any MBC strictly below it is called 1; any MBC meeting it or above is called -1.

{"GIVEN_SMILES": "CC(=O)O.CCCCCCCCNC1=NC(NCCCCC)=NC(C)(C)N1", "ASSIGNED_CATEGORY": -1}

Task item: Given the entry CC(=O)O.CCCCCCCCNC1=NC(C)(C)NC(NCCc2ccccc2)=N1 , would its reported MBC be below 6 µg/mL?
Reply: 1

Task item: Given the entry CC(=O)O.CCCCCCCCNC1=NC(C)(C)NC(Nc2ccccc2)=N1 , would its reported MBC be below 6 µg/mL?
Reply: -1

---

Please go through the items and note down their MBC.
# System: Pseudomonas aeruginosa
# TEST: Bactericidal activity against Pseudomonas aeruginosa PAO1 preincubated for 1 min before addition of growth medium measured after 40 to 48 hrs
# Format: functional
One number for each entry, in mg/L.

{"GIVEN_SMILES": "CC(=O)O.CCCCCCCCCNC1=NC(C)(C)NC(NCc2ccc(C)cc2)=N1", "NUMBER": 12.5}

Task item: // lookup MBC | system=Pseudomonas aeruginosa | key= CCCCCCCCCNC1=NC(C)(C)NC(NCc2ccc(OC)cc2)=N1.CS(=O)(=O)O
Reply: 25

---

# Test system: Escherichia coli
# TEST: Bactericidal activity against Escherichia coli NIHJ JC-2 preincubated for 3 mins before addition of growth medium measured after 40 to 48 hrs
# Format: functional
READOUT: MBC (mg/L)
Answers are plain numbers, in mg/L.

Answered cases to consult:
{"GIVEN_SMILES": "CC(=O)O.CCCCCCCCCCCCNC1=NC(C)(C)NC(NCC)=N1", "UNIT_DESCRIPTOR": "mg/L", "NUMBER": 3.1}
{"GIVEN_SMILES": "CC(=O)O.CCCCCCCCNC1=NC(C)(C)NC(NCCc2ccccc2)=N1", "UNIT_DESCRIPTOR": "mg/L", "NUMBER": 3.1}
{"GIVEN_SMILES": "CC(=O)O.CCCCCCCCCCNC1=NC(C)(C)NC(NCCc2ccccc2)=N1", "UNIT_DESCRIPTOR": "mg/L", "NUMBER": 12.5}
{"GIVEN_SMILES": "CC(=O)O.CCCCCCCCCNC1=NC(C)(C)NC(NCCc2ccccc2)=N1", "UNIT_DESCRIPTOR": "mg/L", "NUMBER": 3.1}
{"GIVEN_SMILES": "CC(=O)O.CCCCCCCCCNC1=NC(C)(C)NC(Nc2ccccc2)=N1", "UNIT_DESCRIPTOR": "mg/L", "NUMBER": 6.3}
{"GIVEN_SMILES": "CC(=O)O.CCCCCCCCNC1=NC(C)(C)NC(NCc2ccc(C(F)(F)F)cc2)=N1", "UNIT_DESCRIPTOR": "mg/L", "NUMBER": 3.1}
{"GIVEN_SMILES": "CC(=O)O.CCCCCCCNC1=NC(C)(C)NC(NCc2ccc(C)cc2)=N1", "UNIT_DESCRIPTOR": "mg/L", "NUMBER": 12.5}
{"GIVEN_SMILES": "CCCCCCCCCCNC1=NC(C)(C)NC(NCCc2ccc(OC)cc2)=N1.Cl", "UNIT_DESCRIPTOR": "mg/L", "NUMBER": 1.6}
{"GIVEN_SMILES": "CC(=O)O.CCCCCCCCNC1=NC(C)(C)NC(NCc2ccc(Cl)cc2)=N1", "UNIT_DESCRIPTOR": "mg/L", "NUMBER": 1.6}
{"GIVEN_SMILES": "CC(=O)O.CCCCCCCCNC1=NC(C)(C)NC(NCc2ccccc2Cl)=N1", "UNIT_DESCRIPTOR": "mg/L", "NUMBER": 3.1}

Provide reported MBC for each item, in the same order as listed.
1. CCCCCCCCCNC1=NC(C)(C)NC(NCc2ccc(OC)cc2)=N1.CS(=O)(=O)O
2. CC(=O)O.CCCCCCCCNC1=NC(C)(C)NC(NCc2ccc(C)cc2)=N1
3. CC(=O)O.CCCCCCCCNC1=NC(C)(C)NC(NCc2ccccc2)=N1
4. CC(=O)O.CCCCCCCCNC1=NC(NCCCCC)=NC(C)(C)N1
5. CC(=O)O.CCCCCCCCCCNC1=NC(C)(C)NC(NCc2ccccc2)=N1
6. CC(=O)O.CCCCCCCCCCNC1=NC(C)(C)NC(NCc2ccc(OC)cc2)=N1
7. CC(=O)O.CCCCCCCNC1=NC(C)(C)NC(NCCCCCCC)=N1
8. CC(=O)O.CCCCCCCCCNC1=NC(C)(C)NC(NCc2ccccc2)=N1

Reply:
[6.3, 6.3, 6.3, 6.3, 12.5, 6.3, 3.1, 6.3]

Provide reported MBC for each item, in the same order as listed.
1. CC(=O)O.CCCCCCCCNC1=NC(C)(C)NC(NCCCC)=N1
2. N=C(NCCCCCCNC(=N)NC(=N)Nc1ccc(Cl)cc1)NC(=N)Nc1ccc(Cl)cc1.O=C(O)[C@H](O)[C@@H](O)[C@H](O)[C@H](O)CO
3. CC(=O)O.CCCCCCCCNC1=NC(C)(C)NC(NCCCCCC)=N1
4. CC(=O)O.CCCCCCCCCNC1=NC(C)(C)NC(NCc2ccc(C)cc2)=N1
5. CC(=O)O.CCCCCCCCNC1=NC(C)(C)NC(Nc2ccccc2)=N1

Reply:
25
31.3
6.3
1.6
6.3

---

Please go through the items and note down their log10(MBC).
# Tested on: Staphylococcus aureus
# TEST: Bactericidal activity against methicillin-resistant Staphylococcus aureus 97-115 preincubated for 3 mins before addition of growth medium measured after 40 to 48 hrs
# Format: functional
Heads up: the numbers are on a log10 scale; they represent MBC in µg/mL.

Answered cases to consult:
{"GIVEN_SMILES": "CC(=O)O.CCCCCCCCNC1=NC(C)(C)NC(NCc2ccccc2)=N1", "log10(MBC)": 1.70}
{"GIVEN_SMILES": "CC(=O)O.CCCCCCCCCNC1=NC(C)(C)NC(NCc2ccc(C)cc2)=N1", "log10(MBC)": 1.10}
{"GIVEN_SMILES": "CC(=O)O.CCCCCCCCNC1=NC(C)(C)NC(NCc2ccc(C(F)(F)F)cc2)=N1", "log10(MBC)": 0.80}
{"GIVEN_SMILES": "N=C(NCCCCCCNC(=N)NC(=N)Nc1ccc(Cl)cc1)NC(=N)Nc1ccc(Cl)cc1.O=C(O)[C@H](O)[C@@H](O)[C@H](O)[C@H](O)CO", "log10(MBC)": 2.40}
{"GIVEN_SMILES": "CC(=O)O.CCCCCCCCNC1=NC(C)(C)NC(NCCCCCC)=N1", "log10(MBC)": 0.80}

Provide reported log10(MBC) for each item, in the same order as listed.
1. CC(=O)O.CCCCCCCCNC1=NC(C)(C)NC(NCc2ccc(Cl)cc2)=N1
2. CC(=O)O.CCCCCCCNC1=NC(C)(C)NC(NCc2ccc(C)cc2)=N1
3. CC(=O)O.CCCCCCCCNC1=NC(C)(C)NC(NCc2ccc(C)cc2)=N1

Reply:
[0.80, 1.70, 1.40]

---

Please go through the items and note down their MIC.
# Test system: Escherichia coli
# TEST: Antibacterial activity against Escherichia coli NIHJ JC-2 after 24 hrs
# Format: functional
One number for each entry, in mg/L.

Answered cases to consult:
{"GIVEN_SMILES": "CC(=O)O.CCCCCCCCNC1=NC(C)(C)NC(NCCCC)=N1", "EXPERIMENTAL_SYSTEM": "Escherichia coli", "MIC (mg/L)": 25}
{"GIVEN_SMILES": "CC(=O)O.CCCCCCCCCNC1=NC(C)(C)NC(Nc2ccccc2)=N1", "EXPERIMENTAL_SYSTEM": "Escherichia coli", "MIC (mg/L)": 12.5}
{"GIVEN_SMILES": "CC(=O)O.CCCCCCCCNC1=NC(C)(C)NC(NCc2ccccc2)=N1", "EXPERIMENTAL_SYSTEM": "Escherichia coli", "MIC (mg/L)": 12.5}
{"GIVEN_SMILES": "CC(=O)O.CCCCCCCCCCNC1=NC(C)(C)NC(NCc2ccccc2)=N1", "EXPERIMENTAL_SYSTEM": "Escherichia coli", "MIC (mg/L)": 12.5}
{"GIVEN_SMILES": "CC(=O)O.CCCCCCCCCCCNC1=NC(C)(C)NC(NCc2ccc(OC)cc2)=N1", "EXPERIMENTAL_SYSTEM": "Escherichia coli", "MIC (mg/L)": 100}

Provide reported MIC for each item, in the same order as listed.
1. CC(=O)O.CCCCCCCCCCNC1=NC(C)(C)NC(NCc2ccc(OC)cc2)=N1
2. CC(=O)O.CCCCCCCCCNC1=NC(C)(C)NC(NCc2ccccc2)=N1
3. CCCCCCCCCNC1=NC(C)(C)NC(NCc2ccc(OC)cc2)=N1.CS(=O)(=O)O
4. CC(=O)O.CCCCCCCNC1=NC(C)(C)NC(NCCCCCCC)=N1
5. CC(=O)O.CCCCCCCCNC1=NC(C)(C)NC(NCCc2ccccc2)=N1
6. CC(=O)O.CCCCCCCCNC1=NC(NCCCCC)=NC(C)(C)N1

Reply:
[25, 12.5, 25, 12.5, 25, 25]

Provide reported MIC for each item, in the same order as listed.
1. CC(=O)O.CCCCCCCCNC1=NC(C)(C)NC(NCc2ccc(C(F)(F)F)cc2)=N1
2. CCCCCCCCCCNC1=NC(C)(C)NC(NCCc2ccc(OC)cc2)=N1.Cl
3. CC(=O)O.CCCCCCCCCCNC1=NC(C)(C)NC(NCc2ccc(C)cc2)=N1
4. N=C(NCCCCCCNC(=N)NC(=N)Nc1ccc(Cl)cc1)NC(=N)Nc1ccc(Cl)cc1.O=C(O)[C@H](O)[C@@H](O)[C@H](O)[C@H](O)CO
5. CC(=O)O.CCCCCCCCNC1=NC(C)(C)NC(NCc2ccccc2Cl)=N1
6. CC(=O)O.CCCCCCCCNC1=NC(NCCC)=NC(C)(C)N1
7. CC(=O)O.CCCCCCCCNC1=NC(C)(C)NC(NCc2ccc(Cl)cc2)=N1
8. CC(=O)O.CCCCCCCCCNC1=NC(C)(C)NC(NCCc2ccccc2)=N1

Reply:
50
50
100
1.6
25
100
25
12.5
